Measurement target: the molecule itself
Protocol notes: MST
pKd: −log10 of the molar value.
Reported property: pKd

Protein	Test result
wild-type HdeA (natural protein, Escherichia coli, UniProt P0AES9 22-110, looked up) ADAQKAADNKKPVNSWTCEDFLAVDESFQPTAVGFAEALNNKDKPEDAVLDVQGIATVTPAIVQACTQDKQANFKDKVKGEWDKIKKDM	6.19
HdeA E37Q (natural protein, Escherichia coli, UniProt P0AES9 22-110, looked up) ADAQKAADNKKPVNSWTCEDFLAVDESFQPTAVGFAQALNNKDKPEDAVLDVQGIATVTPAIVQACTQDKQANFKDKVKGEWDKIKKDM	6.26
